This section presents compounds with their documented composite z-score values.
- tested_system: Pro-neuregulin-1, membrane-bound isoform (Homo sapiens)
- measurement_protocol: NRG1 binders on small-molecule microarrays, primary screen, psychiatric disease protein project, biochemical, small-molecule microarray, fluorescence 635/667 (AID 1075);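 note: score combines 667 nm spot fluorescence with signal to noise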
- setup_conditions: NRG1 binding, 635 nm fluorescence, higher = more signal
I only need the number, thanks.

CCOC(=O)C1=CCC(c2cccn2C(=O)OC(C)(C)C)N(S(=O)(=O)c2ccc(C)cc2)C1 (stereo not given) ... 1.7
C=CC[C@]12N=C(c3ccc(OCCCO)cc3)O[C@H]1c1ccccc1N(CCC)C2=O ... 1.56
CN1C2C=C(c3ccc(CO)cc3)C(C3C(=O)N(C(N)=O)C(=O)C32)C1C1CC1 (stereo not given) ... 0.0413
COCCOC(=O)N1C(=O)[C@@]2(c3cc(C#CC4=CCCCC4)ccc31)[C@H](C(=O)N1CCCCCCC1)[C@H]1C(=O)O[C@H](c3ccccc3)[C@H](c3ccccc3)N1[C@@H]2c1ccccc1OCCO ... 1.11
[N-]=[N+]=NCc1ccccc1[C@H]1OC(c2ccc(OCCCO)cc2)=N[C@@]1(Cc1ccccc1N=[N+]=[N-])C(=O)O ... 1.21

composite z-score recorded for this compound, COC(=O)[C@@]1(Cc2ccc(F)cc2)[C@H]2c3cc(C(=O)N4CCCC4)n(CCc4c[nH]c5cc(F)ccc45)c3C[C@H]2CN1C(=O)c1ccccc1 , is 2.01

composite z-score recorded for this compound, O=C1NC(=O)C2C1C=CC(C(O)C(O)CO)N2Nc1ccccn1 (stereo not given) , is 0.548

composite z-score recorded for this compound, CCCNC(=O)[C@@]1(Sc2ccc(C)cc2)CC(=O)N(Cc2cc(C(F)(F)F)cc(C(F)(F)F)c2)[C@@H]1c1ccc(CO)cc1 , is -0.78

composite z-score recorded for this compound, CCCCC(=C=CC[C@H](O)c1ccccc1OCCO)CCO , is 1.4

composite z-score recorded for this compound, CCOC(=O)C[C@H]1[C@H](OC(=O)c2cc3ccccc3oc2=O)[C@@H](NC(=O)c2ccc(-c3ccccc3)cc2)c2cc(OCCCO)ccc2N1C(=O)Cc1ccc(OC)cc1 , is 0.178

composite z-score recorded for this compound, C=C(/C=C\CNS(=O)(=O)c1ccc(C)cc1)[C@H](O)[C@H]1CCCN1S(=O)(=O)c1ccccc1[N+](=O)[O-] , is 0.618

composite z-score recorded for this compound, C=CCOC(=O)[C@H]1[C@@H]2C(=O)O[C@@H](c3ccccc3)[C@@H](c3ccccc3)N2[C@@H](c2ccc(OCCOC(=O)[C@H]3C[C@H]4C(=O)NCC(=O)N4[C@H]3c3ccc(O)cc3)cc2)[C@]12C(=O)Nc1ccccc12 , is 1.57

composite z-score recorded for this compound, COc1cc(Cc2cc3c(c(CCc4ccccc4)n2)[Si](C(C)C)(C(C)C)O[C@H]3c2ccccc2)cc(OC)c1OC , is -0.499

composite z-score recorded for this compound, CC1C2C(CCCO)=CC(C3C(=O)N(C)C(=O)C23)N1Cc1cccc(OC(F)(F)F)c1 (stereo not given) , is 2.04

composite z-score recorded for this compound, O=C1N(Cc2ccccc2)c2ccccc2C[C@@]12N=C(c1ccc(OCCCO)cc1)O[C@H]2c1ccccc1 , is 0.909

###

- measurement_protocol: small-molecule binders of probe aInhba, primary screen, biochemical, small-molecule microarray, 635/667 nm fluorescence (AID 1148);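 note: score merges 667nm spot fluorescence with signal-to-noise for antibody binding to printed compounds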
- setup_conditions: higher = more signal
Outcome: TRUE for composite z-score of at least 0.007; FALSE for anything lower.

The examples below pair each entry with its known result.
CC(C)N1C(=O)[C@@]2(Cc3ccccc31)c1ccccc1C(=O)N(Cc1ccccc1C(F)(F)F)[C@H]2c1ccc(CO)cc1 ... TRUE
COc1ccc(-c2cc3c(c(CCc4ccccc4)n2)[Si](C(C)C)(C(C)C)O[C@H]3c2ccccc2)cn1 ... FALSE
C=C(C(=O)CC[C@@H](OC(=O)c1cccnc1)c1cccc(OCCO)c1)C(C)C ... FALSE
CC(C)C[C@@H]1NC(=O)[C@H]2C[C@@H](C(=O)O)[C@@H](c3cccc(OCCO)c3)N2C1=O ... TRUE
CC(C)N1CC=CC23O[C@@H]4/C=C\CCCOC(=O)C4[C@H]2C(=O)N(C(C)CO)[C@@H]3C1=O (some centres undefined) ... FALSE

# input for lookup
Say whether O=C1O[C@H](c2ccccc2)[C@H](c2ccccc2)N2[C@H]1[C@@H](C(=O)Nc1nc3ccccc3s1)[C@]1(C(=O)Nc3ccccc31)[C@H]2c1ccccc1OCCO shows composite z-score of 0.007 or more.
TRUE

###

- measurement_protocol: P. aeruginosa biofilm formation inhibitors, primary screen, PAO1 strain, BacTiter-Glo luminescence, LB-PBS (AID 1144)
- setup_conditions: 12 h, higher = more signal
Ranges used to classify z-score: class 0 (below -0.5), class 1 (-0.5 to below -0.01), class 2 (-0.01 or more)

The examples below pair each entry with its known result.
CC1(C)OB(/C=C\CC(OC(=O)c2ccncc2)c2ccccc2)OC1(C)C (stereo not drawn) ... class 2
COC(=O)[C@@]1(Cc2ccc(OC)cc2)[C@@H]2[C@@H](CC(=O)[C@H]2CC(=O)C(=O)N(C)C)CN1C(=O)c1ccccc1 ... class 2
COc1ccc(-c2cc3c(c(CCc4ccccc4)n2)[Si](C(C)C)(C(C)C)O[C@H]3c2ccccc2)cn1 ... class 1
C[C@]1(C(=O)NC2CC2)c2ccccc2C(=O)N(Cc2cc(F)cc(C(F)(F)F)c2)[C@H]1c1ccc(CO)cc1 ... class 0
C=CCNC(=O)[C@@H]1[C@H]2C(=O)O[C@H](c3ccccc3)[C@H](c3ccccc3)N2[C@H](c2ccc(OCCO)cc2)[C@@]12C(=O)Nc1ccc(C#CC3=CCCCC3)cc12 ... class 1
COc1ccc(C#Cc2ccc3c(c2)[C@]2(C(=O)N3)[C@H](c3ccccc3OCCO)N3[C@H](c4ccccc4)[C@H](c4ccccc4)OC(=O)[C@H]3[C@@H]2C(=O)NC[C@H](O)c2ccccc2)cc1 ... class 0
COCCOC(=O)N1C(=O)[C@@]2(c3cc(C#CC4(O)CCCCCC4)ccc31)[C@H](C(N)=O)[C@H]1C(=O)O[C@H](c3ccccc3)[C@H](c3ccccc3)N1[C@@H]2c1ccc(OCCO)cc1 ... class 1
C=CCNC(=O)[C@H]1[C@@H]2C(=O)O[C@@H](c3ccccc3)[C@@H](c3ccccc3)N2[C@@H](c2ccc(OCCO)cc2)[C@]12C(=O)N(C(=O)OCCOC)c1ccc(C#CCNC(N)=O)cc12 ... class 0
COC(=O)[C@H](Cc1ccccc1)N1CC(C)(OC)O[C@@H](Cc2ccccc2)[C@H]1/C=C/C1CC1 (stereo partly drawn) ... class 2
O=C(NCC(F)(F)F)[C@@H]1c2ccccc2C(=O)N(Cc2cc(C(F)(F)F)cc(C(F)(F)F)c2)[C@H]1c1ccc(CO)cc1 ... class 1

Lab note: sort O=C1O[C@H](c2ccccc2)[C@H](c2ccccc2)N2[C@H]1[C@@H](C(=O)N1CCCCCCC1)[C@]1(C(=O)Nc3ccc(C#CCCO)cc31)[C@H]2c1ccc(O)cc1 into the matching z-score band.
class 0

Lab note: sort C=CCNC(=O)[C@@H]1[C@H]2C(=O)O[C@H](c3ccccc3)[C@H](c3ccccc3)N2[C@H](c2ccc(OCCO)cc2)[C@@]12C(=O)Nc1ccc(C#CCNC(N)=O)cc12 into the matching z-score band.
class 2

###

- tested_system: Neurogenic locus notch homolog protein 2 (Homo sapiens)
- measurement_protocol: Notch2 binders on small-molecule microarrays, primary screen, biochemical, small-molecule microarray, 635 nm fluorescence, stem cell growth factors (AID 1073)
- setup_conditions: Notch2 binding, higher = more signal
quantity_kind: composite z-score

Solved cases (6 shown):
COC(=O)[C@]1(Cc2ccccc2N=[N+]=[N-])N=C(c2ccc(OCCCO)cc2)O[C@@H]1c1ccccc1CN=[N+]=[N-] ... 0.632
C=CCNC(=O)[C@H]1[C@@H]2C(=O)O[C@@H](c3ccccc3)[C@@H](c3ccccc3)N2[C@@H](c2ccc(O)cc2)[C@]12C(=O)Nc1ccccc12 ... -1.15
CCCCCCc1nc(Cc2cc(OC)c(OC)c(OC)c2)c(C)c2c1[Si](C(C)C)(C(C)C)OC2 ... -0.0366
CN1C(=O)C2C=CC(C(O)c3ccc(I)cc3)N(N(c3ccccc3)c3ccccc3)C2C1=O (configuration not stated) ... 0.333
COC(=O)[C@@]1(Cc2ccc(F)cc2)[C@H]2c3cc(C(=O)N4CCCC4)n(CCSCCO)c3C[C@H]2CN1C(=O)c1ccccc1 ... 1.53
C=CCC(OC(C)=O)[C@@H]1[C@@H](N(Cc2ccc(-c3ccccc3)cc2)C(=O)Cc2ccc(OC)cc2)c2cc(OCCCO)ccc2N1C(=O)Cc1ccc(OC)cc1 (some centres not stated) ... -0.076

// next entry
composite z-score recorded for this compound, O=C1NC(=O)C2C1C=CC(C(O)C1CCCCC1)N2Nc1ccccn1 (configuration not stated) , is 0.629
